Origin of values: patent US20220073608A1

# Target Desc: T1, human SEMA4D, full length, on CHO-K1 cells (CHO-K1 hSEMA4D) (human, UniProt Q92854 22-862)
# T1 construct: whole, on cells; also called human SEMA4D recombinant cells
# T1 sequence (looked up): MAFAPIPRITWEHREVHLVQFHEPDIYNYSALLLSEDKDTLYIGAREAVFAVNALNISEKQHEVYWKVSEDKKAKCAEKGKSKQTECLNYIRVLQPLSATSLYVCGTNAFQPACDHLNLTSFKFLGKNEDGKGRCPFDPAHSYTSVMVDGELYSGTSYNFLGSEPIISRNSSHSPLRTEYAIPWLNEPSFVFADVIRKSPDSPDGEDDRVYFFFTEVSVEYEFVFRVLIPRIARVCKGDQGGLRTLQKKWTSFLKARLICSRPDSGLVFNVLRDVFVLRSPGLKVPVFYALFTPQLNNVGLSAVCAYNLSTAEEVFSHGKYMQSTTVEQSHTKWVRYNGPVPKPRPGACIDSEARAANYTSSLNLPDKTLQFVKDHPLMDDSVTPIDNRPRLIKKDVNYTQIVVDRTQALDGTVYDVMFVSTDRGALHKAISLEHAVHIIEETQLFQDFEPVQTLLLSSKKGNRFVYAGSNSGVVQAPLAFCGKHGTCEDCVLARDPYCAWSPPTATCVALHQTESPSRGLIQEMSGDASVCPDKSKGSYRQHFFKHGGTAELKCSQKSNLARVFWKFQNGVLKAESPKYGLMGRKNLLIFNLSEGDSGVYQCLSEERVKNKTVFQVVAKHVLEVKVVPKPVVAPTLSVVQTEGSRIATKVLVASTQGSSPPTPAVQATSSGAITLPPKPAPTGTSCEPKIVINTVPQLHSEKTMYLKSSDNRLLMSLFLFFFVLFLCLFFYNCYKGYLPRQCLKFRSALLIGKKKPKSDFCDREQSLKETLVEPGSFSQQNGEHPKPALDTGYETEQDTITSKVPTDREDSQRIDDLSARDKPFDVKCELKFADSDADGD
# Method Notes: FACS, CHO-K1 hSEMA4D cells; Ab 0.107 nM
In this section, each of the binders is paired with its reported MFI.
Output spec: single numeric token, no unit.

Requested field: MFI. Item: 31C11G2 (antibody, V domains shown, Mouse monoclonal antibody purified from hybridoma supernatant on protein A) VH: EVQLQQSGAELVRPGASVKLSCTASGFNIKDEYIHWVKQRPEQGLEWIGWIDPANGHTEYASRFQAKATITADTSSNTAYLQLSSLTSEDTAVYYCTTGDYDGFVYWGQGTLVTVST VL: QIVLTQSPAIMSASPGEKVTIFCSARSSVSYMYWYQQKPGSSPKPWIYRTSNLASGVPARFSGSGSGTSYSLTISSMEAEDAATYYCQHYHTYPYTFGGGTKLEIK 906

Also check 32C8F10 (antibody, V domains shown, Mouse monoclonal antibody purified from hybridoma supernatant on protein A) VH: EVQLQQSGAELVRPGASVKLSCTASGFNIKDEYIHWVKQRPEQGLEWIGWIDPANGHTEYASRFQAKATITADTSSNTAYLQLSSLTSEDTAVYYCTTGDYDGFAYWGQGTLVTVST VL: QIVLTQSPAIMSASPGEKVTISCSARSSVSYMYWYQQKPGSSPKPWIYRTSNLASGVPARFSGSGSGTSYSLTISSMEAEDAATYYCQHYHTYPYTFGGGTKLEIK 832

Now for a further binder.
Requested field: MFI. Item: 37F11F9 (antibody, V domains shown, Mouse monoclonal antibody purified from hybridoma supernatant on protein A) VH: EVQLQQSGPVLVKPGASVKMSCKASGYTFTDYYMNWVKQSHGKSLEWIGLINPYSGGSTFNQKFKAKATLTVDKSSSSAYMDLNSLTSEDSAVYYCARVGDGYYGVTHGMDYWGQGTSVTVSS VL: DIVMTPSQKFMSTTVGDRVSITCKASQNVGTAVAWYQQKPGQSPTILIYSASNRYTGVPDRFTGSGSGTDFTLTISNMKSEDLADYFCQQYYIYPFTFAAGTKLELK 308
